- system name: rh integrin α4β7 (R&D Systems #5397-A30) (human) (UniProt P13612)
- experiment notes: α4β7-MAdCAM competition ELISA
pIC50: −log10 of the molar value. Bridge positions count the residues as written; N and C are the ends. Square brackets hold non-standard residues; d marks the D form. 1Nal = N[C@@H](Cc1cccc2ccccc12)C(=O)O; 2Nal = N[C@@H](Cc1ccc2ccccc2c1)C(=O)O; NMeR = CN[C@@H](CCCNC(=N)N)C(=O)O; hPhe = N[C@@H](CCc1ccccc1)C(=O)O; Aic = NC1(C(=O)O)Cc2ccccc2C1; Pen = CC(C)(S)[C@H](N)C(=O)O; dNMeK = CN[C@H](CCCCN)C(=O)O
Reported pIC50 is given for each of the following binders.

binder	pIC50
Ac-[Pen][NMeR]SDTL[Pen][2Nal][hPhe][dK]-NH2 (disulfide 1-7; SMILES CC(=O)N[C@@H]1C(=O)N(C)[C@@H](CCCNC(=N)N)C(=O)N[C@@H](CO)C(=O)N[C@@H](CC(=O)O)C(=O)N[C@@H]([C@@H](C)O)C(=O)N[C@@H](CC(C)C)C(=O)N[C@H](C(=O)N[C@@H](Cc2ccc3ccccc3c2)C(=O)N[C@@H](CCc2ccccc2)C(=O)N[C@H](CCCCN)C(N)=O)C(C)(C)SSC1(C)C) [SEQ ID NO 50]	< 8.00
Ac-[Pen][NMeR]SDTL[Pen]W[Aic][dK]-NH2 (disulfide 1-7; SMILES CC(=O)N[C@@H]1C(=O)N(C)[C@@H](CCCNC(=N)N)C(=O)N[C@@H](CO)C(=O)N[C@@H](CC(=O)O)C(=O)N[C@@H]([C@@H](C)O)C(=O)N[C@@H](CC(C)C)C(=O)N[C@H](C(=O)N[C@@H](Cc2c[nH]c3ccccc23)C(=O)NC2(C(=O)N[C@H](CCCCN)C(N)=O)Cc3ccccc3C2)C(C)(C)SSC1(C)C) [SEQ ID NO 51]	< 7.60
Ac-[Pen][NMeR]SDTL[Pen][1Nal]E[dNMeK]-NH2 (disulfide 1-7 (inferred); also: homodimer via DIG linker) [SEQ ID NO 44]	> 8.00

Could you now consider this next binder?
Can you share its pIC50? I mean this binder: Ac-[Pen][NMeR]SDTL[Pen][2Nal]E[dNMeK]-NH2 (disulfide 1-7 (inferred); also: homodimer via DIG linker) [SEQ ID NO 41] > 8.00

All values here come from patent US20160159862A1.
